- TGT: HMG-CoA reductase (Rattus norvegicus, UniProt P51639)
- Sequence (P51639 1-887): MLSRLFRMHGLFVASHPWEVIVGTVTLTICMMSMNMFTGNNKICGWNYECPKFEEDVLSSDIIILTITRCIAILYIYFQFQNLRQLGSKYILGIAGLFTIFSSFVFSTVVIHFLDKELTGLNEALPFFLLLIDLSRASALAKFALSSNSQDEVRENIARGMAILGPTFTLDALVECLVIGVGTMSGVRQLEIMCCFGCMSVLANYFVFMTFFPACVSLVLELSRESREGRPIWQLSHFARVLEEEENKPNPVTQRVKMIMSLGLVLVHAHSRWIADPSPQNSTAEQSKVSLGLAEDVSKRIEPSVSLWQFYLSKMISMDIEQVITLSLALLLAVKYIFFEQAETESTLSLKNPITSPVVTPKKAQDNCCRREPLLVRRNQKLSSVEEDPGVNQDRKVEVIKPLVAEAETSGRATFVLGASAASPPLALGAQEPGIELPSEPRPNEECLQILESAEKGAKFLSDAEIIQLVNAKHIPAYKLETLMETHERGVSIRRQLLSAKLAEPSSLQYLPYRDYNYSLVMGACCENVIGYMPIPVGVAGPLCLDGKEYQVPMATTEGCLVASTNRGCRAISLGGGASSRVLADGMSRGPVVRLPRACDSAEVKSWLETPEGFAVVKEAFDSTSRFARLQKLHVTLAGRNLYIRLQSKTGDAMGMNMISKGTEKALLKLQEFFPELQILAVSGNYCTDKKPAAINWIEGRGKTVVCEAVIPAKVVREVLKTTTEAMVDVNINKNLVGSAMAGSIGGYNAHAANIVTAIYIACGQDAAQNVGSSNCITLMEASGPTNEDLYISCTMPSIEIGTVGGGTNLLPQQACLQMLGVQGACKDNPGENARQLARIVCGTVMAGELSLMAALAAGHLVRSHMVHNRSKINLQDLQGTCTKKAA
PROPERTY MEASURED: IC50 (nM)
Only the number, expressed in nM, is required.

Prompt: // lookup IC50 | system=HMG-CoA reductase (Rattus norvegicus, UniProt P51639) | key= "CC[C@H](C)C(=O)O[C@H]1C[C@@H](C)C=C2C=C[C@H](C)[C@H](CC[C@@H]3C[C@@H](O)CC(=O)O3)[C@H]21"
Completion: 24
